- Tested on: SW-620 colon
- experimental_protocol: NCI-60 one-dose screen, 48 h
- stated_conditions: 10 µM unless noted
- Experimental: Growth inhibition of the SW-620 human tumor cell line is measured as a screen for anti-cancer activity. Cells are grown in 96 well plates and exposed to the test compound for 48 hours. Compounds are tested at a single concentration, which is 10^-5 M for most compounds. The reported endpoint is percent growth (GI% or GIPRCNT), where numbers from 0 - 100% represent growth inhibition, and numbers from -100% - 0 represent cell death. For example, a value of 40 represents 60% growth inhibition. […]
About 83,000 compounds went through this panel and 20% of them were active in at least one assay; those are over-represented in the sample as a whole. Active and inactive are the calls of the source. The calls were made as follows: active = growth percent below 10; inactive = the rest.
Outcome field: choose from active, inactive

Name the outcome recorded for COc1ccc(-c2nc3sccn3c2/C=C/C(=O)c2cc(OC)c(OC)c(OC)c2)cc1 in the assay.
inactive

Next entry: COc1ccc(-n2cc(-c3cc(OC)c(OC)c(OC)c3)n(C(C)=O)c2=O)cc1
inactive

Next entry: COc1ccc(NC(=O)c2sc3nc(C)c(C(O)c4ccc(OC)cc4)cc3c2N)cc1 (stereo not given)
inactive

Next entry: COc1ccc(-c2nc(SCC(C)C)nc(N/N=C(/C)c3ccc(OC)c(OC)c3)c2C#N)cc1
inactive

Next entry: Cc1c2c(cc[n+]1Cc1ccc(F)cc1)c1ccc(OCc3cccc(F)c3)cc1n2Cc1cccc(F)c1
active

Next entry: Cc1nn(-c2ccccc2)c(N2CCOCC2)c1/C=N/N=c1\sc2ccccc2n1C
inactive

Next entry: COc1cc2c(cc1[N+](=O)[O-])-c1ccc([N+](=O)[O-])cc1/C2=N\O
inactive

Next entry: CCCCN(CCCC)CCc1c(C)cc(C)c(CCN(CCCC)CCCC)c1O
inactive

Next entry: CCN(CC)S(=O)(=O)c1cccc([N+](=O)[O-])c1
inactive

Next entry: COc1ccc(-c2nn(Cc3ccccc3)c3c2-c2oncc2CC3)cc1OC
inactive
